# credit: patent US20060178359A1

# target of assay: human CCR5 (Homo sapiens)
# Construct: expressed in transfected cells
# Sequence (P51681 whole entry): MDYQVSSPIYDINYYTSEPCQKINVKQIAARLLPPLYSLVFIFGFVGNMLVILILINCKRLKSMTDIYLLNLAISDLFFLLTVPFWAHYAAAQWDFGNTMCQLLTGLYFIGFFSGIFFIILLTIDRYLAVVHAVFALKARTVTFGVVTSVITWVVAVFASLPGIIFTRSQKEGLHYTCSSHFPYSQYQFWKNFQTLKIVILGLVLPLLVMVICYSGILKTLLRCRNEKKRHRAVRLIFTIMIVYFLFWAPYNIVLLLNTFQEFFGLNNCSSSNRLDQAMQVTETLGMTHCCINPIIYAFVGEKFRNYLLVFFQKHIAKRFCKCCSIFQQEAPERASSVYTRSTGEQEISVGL
# assay explanation: inhibition of [125I]-RANTES binding to CCR5/CHO cells
# applied conditions: test compound 1 μM, 100 pM [125I]-RANTES, room temperature, 40 minutes
Reported values of Binding Inhibitory Ratio (%) for individual entries
measure: Binding Inhibitory Ratio (%)

1. CCCCOCCOc1ccc(-c2ccc3c(c2)C=C(C(=O)Nc2ccc([S+]([O-])Cc4cncn4CCC)cc2)CCC2CCCN32)cc1 (centres unmarked): 96
2. CCCCOCCOc1ccc(-c2cnc3c(c2)C=C(C(=O)Nc2ccc([S@@+]([O-])Cc4cncn4CCC)cc2)CC[C@H]2CCCN32)cc1: 98
3. CCCCOCCOc1ccc(-c2ccc3c(c2)C=C(C(=O)Nc2ccc([S+]([O-])Cc4cncn4CCC)cc2)CCC2CCCCN32)cc1 (centres unmarked): 97
4. CCCCOCCOc1ccc(-c2cnc3c(c2)C=C(C(=O)Nc2ccc([S@@+]([O-])Cc4cncn4CCC)cc2)CCC2CCCN32)cc1 (some centres unmarked): 100
5. CCCCOCCOc1ccc(-c2cnc3c(c2)C=C(C(=O)Nc2ccc([S@@+]([O-])Cc4cncn4CCC)cc2)CC[C@@H]2CCCN32)cc1: 94
